# target-desc: Xenopus laevis Aurora B/INCENP complex (Xenopus laevis, UniProt Q6DE08)
# Construct: equipped at the N-terminal position with a GST tag (amino acids 60-361); GST (N, cleaved yes); made in house; host or cells: E. coli BL21 (DE3)
# Sequence (Q6DE08 60-361): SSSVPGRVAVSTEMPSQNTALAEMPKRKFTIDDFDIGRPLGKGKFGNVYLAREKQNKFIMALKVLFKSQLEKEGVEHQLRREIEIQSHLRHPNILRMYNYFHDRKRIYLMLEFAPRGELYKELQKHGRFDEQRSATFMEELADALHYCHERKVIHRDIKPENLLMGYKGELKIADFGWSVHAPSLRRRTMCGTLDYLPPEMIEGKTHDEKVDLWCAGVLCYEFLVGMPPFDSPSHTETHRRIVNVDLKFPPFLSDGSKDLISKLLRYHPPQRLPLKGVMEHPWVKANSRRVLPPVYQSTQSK
# Sequence (O13024 790-847 partner limits assumed): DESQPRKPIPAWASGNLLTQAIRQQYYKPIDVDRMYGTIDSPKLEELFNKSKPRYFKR
# procedure-text: Aurora-B kinase assay (radioactive enzyme inhibition assay)
# Type: biochemical
# particulars: test substance at 1 μM; percentage of the positive control (maximum value without test substance)
// thresholds for remaining activity at 1 µM classes: category 1: < 2%; category 2: ≥ 2% and < 5%; category 3: ≥ 5%

Inquiry: For the record CN(C)Cc1ccc(N/C(=C2\C(=O)Nc3cc(-c4ccc5c(c4)CC(=O)N5)ccc32)c2ccccc2)cc1 , report the class its remaining activity at 1 µM corresponds to.
Reply text: category 3

Inquiry: For the record CC(C)Nc1ncc(-c2ccc3c(c2)NC(=O)/C3=C(\Nc2ccc(N3CCN(C)CC3)nc2)c2ccccc2)cn1 , report the class its remaining activity at 1 µM corresponds to.
Reply text: category 3

Inquiry: For the record COc1cc(N/C(=C2\C(=O)Nc3cc(-c4ccc(NC(C)C)nc4)ccc32)c2ccccc2)ccc1C(=O)N1CCCN(C)CC1 , report the class its remaining activity at 1 µM corresponds to.
Reply text: category 1

Inquiry: For the record O=C(C#Cc1ccc2c(c1)NC(=O)/C2=C(\Nc1ccc(CN2CCCC2)cc1)c1ccccc1)Nc1cccc(Cl)c1 , report the class its remaining activity at 1 µM corresponds to.
Reply text: category 2

Inquiry: For the record CCNC(=O)C#Cc1ccc2c(c1)NC(=O)/C2=C(\Nc1ccc(CN(C)C)c(F)c1)c1ccccc1 , report the class its remaining activity at 1 µM corresponds to.
Reply text: category 1

Inquiry: For the record O=C(C#Cc1ccc2c(c1)NC(=O)/C2=C(\Nc1ccc(CN2CCCC2)cc1)c1ccccc1)NCCF , report the class its remaining activity at 1 µM corresponds to.
Reply text: category 1

Inquiry: For the record CCNC(=O)C#Cc1cc2c(cc1S(=O)(=O)N1CC(F)(F)C1)/C(=C(/Nc1ccc(N3CCN(C)CC3)cc1)c1ccccc1)C(=O)N2 , report the class its remaining activity at 1 µM corresponds to.
Reply text: category 2

Inquiry: For the record Cc1cc(N/C(=C2\C(=O)Nc3cc(-c4cnc(NC(C)C)nc4)ccc32)c2ccccc2)ccn1 , report the class its remaining activity at 1 µM corresponds to.
Reply text: category 2

Inquiry: For the record CC(C)Nc1ncc(-c2ccc3c(c2)NC(=O)/C3=C(\Nc2ccc(C(C)(C)C(=O)O)cc2)c2ccccc2)cn1 , report the class its remaining activity at 1 µM corresponds to.
Reply text: category 1

Inquiry: For the record COc1cc(N/C(=C2\C(=O)Nc3cc(-c4cnc(NC(C)C)nc4)ccc32)c2ccccc2)ccc1C(=O)O , report the class its remaining activity at 1 µM corresponds to.
Reply text: category 2

Inquiry: For the record CC(C)Nc1ncc(-c2ccc3c(c2)NC(=O)/C3=C(\Nc2ccc3c(c2)CN(C)C3)c2ccccc2)cn1 , report the class its remaining activity at 1 µM corresponds to.
Reply text: category 3

Inquiry: For the record COc1ccc(-c2ccc3c(c2)NC(=O)/C3=C(\Nc2ccc(CN(C)C)cc2)c2ccccc2)cn1 , report the class its remaining activity at 1 µM corresponds to.
Reply text: category 3

Inquiry: For the record CC(C)Nc1ccc(-c2ccc3c(c2)NC(=O)/C3=C(\Nc2ccc(C(=O)N3C[C@@H](C)N[C@@H](C)C3)cc2)c2ccccc2)cn1 , report the class its remaining activity at 1 µM corresponds to.
Reply text: category 2

* * *

Would you kindly list remaining activity at 1 µM for each of these compounds?
# target-desc: Xenopus laevis Aurora B/INCENP complex (Xenopus laevis, UniProt Q6DE08)
# Construct: equipped at the N-terminal position with a GST tag (amino acids 60-361); GST (N, cleaved yes); made in house; host or cells: E. coli BL21 (DE3)
# procedure-text: Aurora-B kinase assay (radioactive enzyme inhibition assay)
# Assay type: biochemical
# particulars: test substance at 1 μM; percentage of the positive control (maximum value without test substance)
Numeric only. Scale: %

Inquiry: What remaining activity at 1 µM value was documented for this compound, CC(C)Nc1ccc(-c2ccc3c(c2)NC(=O)/C3=C(\Nc2ccc(C(=O)N3CCC(N4CCOCC4)CC3)cc2)c2ccccc2)cn1 [Example 121] ?
Reply text: 3.31

Inquiry: What remaining activity at 1 µM value was documented for this compound, CC(C)Nc1ccc(-c2ccc3c(c2)NC(=O)/C3=C(\Nc2ccc(C(=O)N3C[C@H]4C[C@@H]3CN4C)cc2)c2ccccc2)cn1 [Example 131] ?
Reply text: 5.48

Inquiry: What remaining activity at 1 µM value was documented for this compound, CC(C)Nc1ccc(-c2ccc3c(c2)NC(=O)/C3=C(\Nc2ccc(C(=O)N3CCN(C4CCOCC4)CC3)cc2)c2ccccc2)cn1 [Example 129] ?
Reply text: 4.55

Inquiry: What remaining activity at 1 µM value was documented for this compound, CN(C)Cc1ccc(N/C(=C2\C(=O)Nc3cc(-c4cccc(S(=O)(=O)N(C)C)c4)ccc32)c2ccccc2)cc1 [Example 65] ?
Reply text: 27.6

Inquiry: What remaining activity at 1 µM value was documented for this compound, CN(C)Cc1ccc(N/C(=C2\C(=O)Nc3cc(-c4cnc(NC5CC5)nc4)ccc32)c2ccccc2)cc1 [Example 48] ?
Reply text: 3.44

Inquiry: What remaining activity at 1 µM value was documented for this compound, CN(C)Cc1ccc(N/C(=C2\C(=O)Nc3cc(-c4cnc(NCC(F)F)nc4)ccc32)c2ccccc2)cc1 [Example 47] ?
Reply text: 1.59

Inquiry: What remaining activity at 1 µM value was documented for this compound, CN1CCN(c2ccc(N/C(=C3\C(=O)Nc4cc(C#CC(=O)NC5CCCC5)ccc43)c3ccccc3)cc2)CC1 [Example 164] ?
Reply text: 3.17

Inquiry: What remaining activity at 1 µM value was documented for this compound, CC(C)Nc1ccc(-c2ccc3c(c2)NC(=O)/C3=C(\Nc2ccc(C(=O)N3CC[C@@H](N(C)C)C3)cc2)c2ccccc2)cn1 [Example 137] ?
Reply text: 0.67

Inquiry: What remaining activity at 1 µM value was documented for this compound, CN(C)Cc1ccc(N/C(=C2\C(=O)Nc3cc(-c4cccc(C#N)c4)ccc32)c2ccccc2)cc1 [Example 39] ?
Reply text: 30.9

Inquiry: What remaining activity at 1 µM value was documented for this compound, CC(C)Nc1ccc(-c2ccc3c(c2)NC(=O)/C3=C(\Nc2ccc(C(=O)N(C)CCN(C)C)cc2)c2ccccc2)cn1 [Example 138] ?
Reply text: 0.68

Inquiry: What remaining activity at 1 µM value was documented for this compound, CC(C)NC(=O)C#Cc1cc2c(cc1S(=O)(=O)N1CC(F)(F)C1)/C(=C(/Nc1ccc(N3CCN(C)CC3)cc1)c1ccccc1)C(=O)N2 [Example 156] ?
Reply text: 3.02

Inquiry: What remaining activity at 1 µM value was documented for this compound, CN(C)Cc1ccc(N/C(=C2\C(=O)Nc3cc(-c4cccc(C(N)=O)c4)ccc32)c2ccccc2)cc1 [Example 68] ?
Reply text: 18.1

Inquiry: What remaining activity at 1 µM value was documented for this compound, CN(C)Cc1ccc(N/C(=C2\C(=O)Nc3cc(C#CC(=O)NC4CCC4)c(F)cc32)c2ccccc2)cc1 [Example 155] ?
Reply text: 8.61

Inquiry: What remaining activity at 1 µM value was documented for this compound, CC(C)Nc1ccc(-c2ccc3c(c2)NC(=O)/C3=C(\Nc2ccc(C(C)(C)C(=O)N3CC[C@H](N(C)C)C3)cc2)c2ccccc2)cn1 [Example 100] ?
Reply text: 3.36

Inquiry: What remaining activity at 1 µM value was documented for this compound, CN(C)Cc1ccc(N/C(=C2\C(=O)Nc3cc(-c4cnc5ccccc5c4)ccc32)c2ccccc2)cc1 [Example 40] ?
Reply text: 34.7

Inquiry: What remaining activity at 1 µM value was documented for this compound, CCNC(=O)C#Cc1ccc2c(c1)NC(=O)/C2=C(\Nc1ccc(CN2CCCC2)cc1)c1ccccc1 [Example 175] ?
Reply text: 3.04

Inquiry: What remaining activity at 1 µM value was documented for this compound, COC(=O)c1ccc(N/C(=C2\C(=O)Nc3cc(-c4cnc(NC(C)C)nc4)ccc32)c2ccccc2)cc1 [Example 84] ?
Reply text: 65.2

* * *

# target-desc: Xenopus laevis Aurora B/INCENP complex (Xenopus laevis, UniProt Q6DE08)
# Construct: equipped at the N-terminal position with a GST tag (amino acids 60-361); GST (N, cleaved yes); made in house; host or cells: E. coli BL21 (DE3)
# procedure-text: Aurora-B kinase assay (radioactive enzyme inhibition assay)
# Format: biochemical
# particulars: test substance at 1 μM; percentage of the positive control (maximum value without test substance)
reported-property: remaining activity at 1 µM

Inquiry: What remaining activity at 1 µM value was documented for this compound, CC(C)Nc1ncc(-c2ccc3c(c2)NC(=O)/C3=C(\Nc2ccc(N3CCN(C)[C@@H](C)C3)cc2)c2ccccc2)cn1 ?
Reply text: 2.92%

Inquiry: What remaining activity at 1 µM value was documented for this compound, COc1cc(N/C(=C2\C(=O)Nc3cc(-c4ccc(NC(C)C)nc4)ccc32)c2ccccc2)ccc1C(=O)N(C)C1CCN(C)CC1 ?
Reply text: 1.7%

Inquiry: What remaining activity at 1 µM value was documented for this compound, CN(C)Cc1ccc(N/C(=C2\C(=O)Nc3cc(-c4ccc(OCC5CC5)nc4)ccc32)c2ccccc2)cc1 ?
Reply text: 22%

Inquiry: What remaining activity at 1 µM value was documented for this compound, CCNC(=O)C#Cc1ccc2c(c1)NC(=O)/C2=C(\Nc1ccc(CN(C)C)cc1)c1ccccc1 ?
Reply text: 1.65%

Inquiry: What remaining activity at 1 µM value was documented for this compound, CCNc1ccc(-c2ccc3c(c2)NC(=O)/C3=C(\Nc2ccc(CN(C)C)cc2)c2ccccc2)cn1 ?
Reply text: 7.08%

Inquiry: What remaining activity at 1 µM value was documented for this compound, CC(C)Nc1ncc(-c2ccc3c(c2)NC(=O)/C3=C(\Nc2ccc(N3CCN(C)CC3)cc2)c2ccccc2)cn1 ?
Reply text: 3.85%

Inquiry: What remaining activity at 1 µM value was documented for this compound, CC(C)Nc1ccc(-c2ccc3c(c2)NC(=O)/C3=C(\Nc2ccc(C(C)(C)C(=O)N3CC[C@@H](N(C)C)C3)cc2)c2ccccc2)cn1 ?
Reply text: 3.62%

Inquiry: What remaining activity at 1 µM value was documented for this compound, CN(C)Cc1ccc(N/C(=C2\C(=O)Nc3cc(-c4ccc(N)nc4)ccc32)c2ccccc2)cc1 ?
Reply text: 18.3%

Inquiry: What remaining activity at 1 µM value was documented for this compound, CC(C)Nc1ncc(-c2ccc3c(c2)NC(=O)/C3=C(\NC2CCOCC2)c2ccccc2)cn1 ?
Reply text: 96.2%

Inquiry: What remaining activity at 1 µM value was documented for this compound, CN(C)Cc1ccc(N/C(=C2\C(=O)Nc3cc(-c4cn[nH]c4)ccc32)c2ccccc2)cc1 ?
Reply text: 14.1%

Inquiry: What remaining activity at 1 µM value was documented for this compound, CC(C)Nc1ncc(-c2ccc3c(c2)NC(=O)/C3=C(\Nc2ccc(C(=O)O)cc2)c2ccccc2)cn1 ?
Reply text: 1.04%

Inquiry: What remaining activity at 1 µM value was documented for this compound, CC(C)Nc1ccc(-c2ccc3c(c2)NC(=O)/C3=C(\Nc2ccc(C(C)(C)C(=O)N3CCN[C@@H](C)C3)cc2)c2ccccc2)cn1 ?
Reply text: 4.64%

Inquiry: What remaining activity at 1 µM value was documented for this compound, CN(C)Cc1ccc(N/C(=C2\C(=O)Nc3cc(C#CC(=O)NC4CCC4)ccc32)c2ccccc2)cc1 ?
Reply text: 2.4%

Inquiry: What remaining activity at 1 µM value was documented for this compound, CC(C)Nc1ccc(-c2ccc3c(c2)NC(=O)/C3=C(\Nc2ccc(C(=O)N3CCCN(C)CC3)cc2)c2ccccc2)cn1 ?
Reply text: 2.75%

Inquiry: What remaining activity at 1 µM value was documented for this compound, CN(C)Cc1ccc(N/C(=C2\C(=O)Nc3cc(-c4ccc(NCC5CC5)nc4)ccc32)c2ccccc2)cc1 ?
Reply text: 5.91%

Inquiry: What remaining activity at 1 µM value was documented for this compound, CC(C)Nc1ccc(-c2ccc3c(c2)NC(=O)/C3=C(\Nc2ccc(C(C)(C)C(=O)N(C)C3CCN(C)CC3)cc2)c2ccccc2)cn1 ?
Reply text: 3.84%
